Assignment: determine reported drug sensitivity score for the given compounds.
- System: Calu-3
- experimentNotes: drug sensitivity score (DSS) for viability; higher = more toxic; extreme values may be limits of the assay
- reportedConditions: 72 h
One number for each entry.

Consider the following illustrative entries.
compound	valueMeasured
COc1ccc(C(Cl)=C(c2ccc(OC)cc2)c2ccc(OC)cc2)cc1 [chlorotrianisene]	0
CCCC(=O)Nc1cccc(NC(=O)c2ccccc2Br)c1 [ML161]	0
C#C[C@]1(O)CC[C@H]2[C@@H]3CCC4=CC(=O)CC[C@@H]4[C@H]3CC[C@@]21C [Norethindrone (Norethisterone)]	0

Attention now shifts to the item below.
Q: Please give the documented drug sensitivity score of `COc1ccc2[nH]c(C(=O)c3ccccc3)cc2c1`
Ans: 6.8
